tested on: Staphylococcus aureus; assay: Antimicrobial activity against Staphylococcus aureus ATCC 2592 assessed as inhibition of […] growth after 16 hrs by broth dilution method; type: functional; conditions: ATCC 2592, 16 h
measurement name: MIC

substance=H-VKRWKKWRWKWKKWV-NH2 measurement_name=MIC result="1.17 µg/mL"
substance=H-VKRFKKFFRKLKKSV-NH2 measurement_name=MIC result="> 100 µg/mL"
substance=H-VKRWKKFWRKWKKWW-NH2 measurement_name=MIC result="4.69 µg/mL"
substance=H-VKWRWKWKWRWKWKWKV-NH2 measurement_name=MIC result="> 100 µg/mL"
substance=H-VKWRWKKWRWKWKWKV-NH2 measurement_name=MIC result="> 100 µg/mL"
substance=H-KFFRKLKKSVKKRAKEFFKKPRVIGVSIPF-OH measurement_name=MIC result="> 100 µg/mL"

stdin: Look up MIC of `H-VKRWKKWWRKLKKSV-NH2` and report it.
stdout: > 100 µg/mL

stdin: Look up MIC of `H-VKRFKKFFRKFKKSV-NH2` and report it.
stdout: > 100 µg/mL

====

experiment: Induction of hemolysis in human RBC at 320 ug/mL after 30 mins; format: cell-based, Erythrocyte; conditions: red blood cells, read-out: Activity
measurement name: hemolysis at 0.5 h, 320 ug/mL

Use these answered entries as a reference point.
substance=H-VKRFKKFFRKFKKSV-NH2 result=7.5%
substance=H-VKRFKKFFRKLKKSV-NH2 result=9.7%
substance=H-VKRWKKWRWKWKKWV-NH2 result=3.1%
substance=H-VKWRWKWKWRWKWKWKV-NH2 result=30.8%

stdin: Look up hemolysis at 0.5 h, 320 ug/mL of `H-VKRWKKWWRKLKKSV-NH2` and report it.
stdout: 8.7%

stdin: Look up hemolysis at 0.5 h, 320 ug/mL of `H-VKRWKKFWRKWKKWW-NH2` and report it.
stdout: 27.6%

stdin: Look up hemolysis at 0.5 h, 320 ug/mL of `H-KFFRKLKKSVKKRAKEFFKKPRVIGVSIPF-OH` and report it.
stdout: 7.4%

stdin: Look up hemolysis at 0.5 h, 320 ug/mL of `H-VKWRWKKWRWKWKWKV-NH2` and report it.
stdout: 17.6%

====

assay: Hemolytic activity in human RBC after 30 mins; format: ADME, cell-based, Erythrocyte; settings: erythrocyte, 0.5 h
Reported HC10 values for a set of substances

substance=H-KFFRKLKKSVKKRAKEFFKKPRVIGVSIPF-OH measurement_name=HC10 result="> 320 µg/mL"
substance=H-VKWRWKWKWRWKWKWKV-NH2 measurement_name=HC10 result="62.8 µg/mL"
substance=H-VKRFKKFFRKFKKSV-NH2 measurement_name=HC10 result="> 320 µg/mL"
substance=H-VKRWKKWWRKLKKSV-NH2 measurement_name=HC10 result="> 320 µg/mL"
substance=H-VKRFKKFFRKLKKSV-NH2 measurement_name=HC10 result="> 320 µg/mL"
substance=H-VKRWKKWRWKWKKWV-NH2 measurement_name=HC10 result="> 320 µg/mL"
substance=H-VKRWKKFWRKWKKWW-NH2 measurement_name=HC10 result="51.7 µg/mL"

stdin: Look up HC10 of `H-VKWRWKKWRWKWKWKV-NH2` and report it.
stdout: 178.3 µg/mL

The reported numbers originate from ChEMBL document CHEMBL3779860.
